// data source = patent US9233961B2

System: L. donovani HU3 strain in mouse peritoneal macrophages
assay-name: Assay for proliferation of Leishmania parasites in mouse peritoneal macrophages
Assay type: cell-based, Leishmania donovani
measurement-parameters: L. donovani in mouse peritoneal macrophages, 5 days culture, SybrGreen parasite nuclei count; read-out: EC50
pEC50: −log10 of the molar value.
test-readout: pEC50

Which measured pEC50 belongs to "O=C(Nc1ccc(Cl)c(-c2nc3ncc(-c4ccccc4)cc3[nH]2)c1)N1CCCC1" , tested on L. donovani HU3 strain in mouse peritoneal macrophages? ~7.10

---

Known log10(EC50) of a selection of compounds
Test system: Leishmania donovani axenic amastigote parasites
assay-name: Leishmania donovani axenic amastigote proliferation assay
Format: cell-based
measurement-parameters: axenic amastigotes in vitro, read-out: L. donovani amastigotes EC50
Friendly reminder: values = log10 of EC50, unit µM.

Which log10(EC50) is reported for this compound? "O=C(Nc1ccc(Cl)c(-c2nc3ncc(-c4ccc(OC(F)(F)F)cc4)cc3[nH]2)c1)c1ccco1" 0.75

# get_value(readout='log10(EC50)', item= "NS(=O)(=O)c1ccc(-c2cnc3nc(-c4cc(NC(=O)c5ccco5)ccc4Cl)[nH]c3c2)cc1" ) 0.66

Consider the compound "CN(C)c1ccc(-c2cnc3nc(-c4cc(NC(=O)c5ccco5)ccc4Cl)[nH]c3c2)cn1" and give its measured log10(EC50). -0.71

Quick check: log10(EC50) of "O=C(Cc1cccc(Cl)c1)Nc1ccc(Cl)c(-c2nc3ncc(C(F)(F)F)cc3[nH]2)c1" ? 1.33

Can you share its log10(EC50)? I mean this compound: "Cc1cncc(C(=O)Nc2ccc(Cl)c(-c3nc4ncc(C)cc4[nH]3)c2)c1" 1.21

Now examine the next entry.
Bench note: what log10(EC50) did "Nc1ccc(-c2cnc3nc(-c4cc(NC(=O)c5ccco5)ccc4Cl)[nH]c3c2)cn1" show? -0.78

---

System: L. donovani HU3 strain in mouse peritoneal macrophages
assay-name: Assay for proliferation of Leishmania parasites in mouse peritoneal macrophages
Assay type: cell-based, Leishmania donovani
measurement-parameters: Leishmania donovani, Peritoneal macrophage, read-out: L. donavani Macrophage EC50
// reported EC50 per item
Write the number in µM without appending the unit.

Solved cases (5 shown):
What does the data say about its EC50? Entry: "Cc1cnc2nc(-c3cc(NC(=O)c4cncc(Cl)n4)ccc3Cl)[nH]c2c1" 4.8

For the compound shown here, "O=C(Nc1ccc(F)c(-c2nc3ncc(Cl)cc3[nH]2)c1)c1ccco1" , give the reported EC50. 2.51

Look up EC50: "O=C(Nc1ccc(Cl)c(-c2nc3ncc(-c4ccc(CCN5CCOCC5)cc4)cc3[nH]2)c1)c1ccco1" 0.65

Fill in the blank: the reported EC50 of "Cc1ccc(C(=O)Nc2ccc(F)c(-c3nc4ncc(-c5ccsc5)cc4[nH]3)c2)o1" is ____. 1.6

What value of EC50 has been recorded for this entry: "Cc1cnc2nc(-c3cc(NC(=O)OCCF)ccc3Cl)[nH]c2c1" 27.5

---
# lookup: EC50 of "O=C(Nc1ccc(Cl)c(-c2nc3ncc(-c4ccc(OCCCN5CCOCC5)cc4)cc3[nH]2)c1)N1CCCC1" 9.9

Reported EC50 for "Cc1cnc2nc(-c3cc(NC(=O)c4cccc(Cl)c4)ccc3Cl)[nH]c2c1" : what is it? 9.2

---

System: L. donovani HU3 strain in mouse peritoneal macrophages
assay-name: Assay for proliferation of Leishmania parasites in mouse peritoneal macrophages
Type: cell-based, Leishmania donovani
measurement-parameters: Leishmania donovani, Peritoneal macrophage, read-out: L. donavani Macrophage EC50
# Lookup of reported EC50 keyed by entry
Kindly provide the numeric value in µM only, without the unit symbol.

Example cases with answers are listed next.
What EC50 value was documented for this molecule, "CC(=O)Nc1ccc(-c2cnc3nc(-c4cc(NC(=O)c5ccco5)ccc4Cl)[nH]c3c2)cc1" ? 1.48

Given the entry "COc1ccccc1C(=O)Nc1ccc(Cl)c(-c2nc3ncc(C)cc3[nH]2)c1" , report its measured EC50. 16.3

Endpoint output: EC50 of "CC(C)OC(=O)Nc1ccc(Cl)c(-c2nc3ncc(-c4ccccc4NC(=O)OC(C)C)cc3[nH]2)c1" . Value? 1.09

What value of EC50 has been reported for the following molecule? "CNc1ccc(-c2cnc3nc(-c4cc(NC(=O)c5cscn5)ccc4Cl)[nH]c3c2)cc1" 2.69

Report EC50 for "Cc1cnc2nc(-c3cc(NC(=O)Cc4onc5ccccc45)ccc3Cl)[nH]c2c1" please. 21.7

Item "Cc1cnc2nc(-c3cc(NC(=O)OC(C)C)ccc3Cl)[nH]c2c1" has what recorded EC50? 2.83

GET /values?readout=EC50&item= "COC(=O)Nc1ccc(-c2cnc3nc(-c4cc(NC(=O)N5CCCC5)ccc4Cl)[nH]c3c2)cc1" 0.126

# lookup: EC50 of "O=C(Nc1ccc(C(F)(F)F)cc1)Nc1ccc(F)c(-c2nc3ncc(-c4ccc(N5CCOCC5)cc4)cc3o2)c1" 8.4

Which measured EC50 value corresponds to "COCCOC(=O)Nc1ccc(Cl)c(-c2nc3ncc(-c4ccc5c(c4)CC(=O)N5)cc3[nH]2)c1" ? 8.7

Now take the following molecule into account.
I have this molecule here, "Cc1cnc2nc(-c3cc(NC(=O)c4ccnc(C)c4)ccc3Cl)[nH]c2c1" , and I need its recorded EC50. 11.6
